assay: Compound was evaluated for lethal dose in mice; assay type: toxicity, organism-based; conditions: mouse, in vivo
recorded_endpoint: LD50 (mg/kg)
Give your result in mg/kg as a bare value.

- molecule_smiles: "Cc1ccc(S(=O)(=O)O)cc1.Cn1cccc1/C=N/N=C(\\N)NO"
  LD50, mg/kg: 322

Query: Which value of LD50 has been reported for `Cc1ccc(S(=O)(=O)O)cc1.N#Cc1ccc(/C=N/N/C(N)=N/O)cc1` in the records?
Response: 156
